# assay target: TbDHFR-TS (Trypanosoma brucei brucei)
# Construct: His tag; made in house; host or cells: E. coli
# Sequence (Q27783 whole entry): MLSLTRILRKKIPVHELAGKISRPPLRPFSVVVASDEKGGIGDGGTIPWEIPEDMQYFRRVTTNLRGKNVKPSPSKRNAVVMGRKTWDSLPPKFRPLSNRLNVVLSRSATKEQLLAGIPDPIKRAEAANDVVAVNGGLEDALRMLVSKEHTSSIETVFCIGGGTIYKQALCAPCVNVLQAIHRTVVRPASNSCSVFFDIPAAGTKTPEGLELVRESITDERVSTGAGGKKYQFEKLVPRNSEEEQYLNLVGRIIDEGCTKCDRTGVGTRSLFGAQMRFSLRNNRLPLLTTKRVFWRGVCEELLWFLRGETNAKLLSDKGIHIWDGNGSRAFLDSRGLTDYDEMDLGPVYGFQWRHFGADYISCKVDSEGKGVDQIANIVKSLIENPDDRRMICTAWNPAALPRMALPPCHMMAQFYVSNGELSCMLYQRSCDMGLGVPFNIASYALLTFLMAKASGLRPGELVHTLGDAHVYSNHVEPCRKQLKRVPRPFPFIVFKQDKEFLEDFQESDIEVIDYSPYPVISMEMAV
# test: biochemical
# Assay type: biochemical
# condition details: TES buffer pH 7.4, 50 µM H2FA; spread from CI95 of fitting; read-out: TbDHFR-TS (IC50 µM)
reported property: IC50 (µM)
Answer format: numeric, µM implied, no suffix.

// below: answered molecules
molecule	reported property	recorded result
COc1ccc(N2C(N)=NC(NC(C)=O)=NC2(C)C)cc1 [Compound 6]	IC50	18.9
CC1(C)N=C(N)N=C(N)N1c1ccc(O)cc1 [Compound 4]	IC50	89
NC1=NC2(CCCCC2)N(c2ccc(Cl)cc2)C(N)=N1 [Compound 3]	IC50	17.6

// below: IC50 requested for another molecule
Dear colleague, I am looking for the recorded IC50 of the following molecule: COc1ccc(N2C(N)=NC(N)=NC2(C)C)cc1 [Compound 5]
33.2

---

Each entry below carries its recorded Selectivity IC50 TbDHFR-TS /IC50 TbPTR1.
# assay target: TbPTR1 (Trypanosoma brucei brucei, UniProt O76290)
# Construct: His tag; made in house; host or cells: E. coli
# Sequence (O76290 1-268): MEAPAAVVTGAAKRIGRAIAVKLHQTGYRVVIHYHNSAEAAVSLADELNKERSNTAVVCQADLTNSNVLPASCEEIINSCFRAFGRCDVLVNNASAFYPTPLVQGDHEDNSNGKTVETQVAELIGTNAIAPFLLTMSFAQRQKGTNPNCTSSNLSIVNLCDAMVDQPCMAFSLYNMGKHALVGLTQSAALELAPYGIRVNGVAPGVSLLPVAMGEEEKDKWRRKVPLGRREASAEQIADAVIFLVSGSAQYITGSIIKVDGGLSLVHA
# test: biochemical
# Type: biochemical
# condition details: ratio; for PYR and CYC calculated assuming a competitive inhibition mechanism
Lab note: write the figure by itself, no unit.

Previously resolved entries follow.
compound	Selectivity IC50 TbDHFR-TS /IC50 TbPTR1
COc1ccc(N2C(N)=NC(NC(C)=O)=NC2(C)C)cc1 [Compound 6]	22.8
CCCC1N=C(N)N=C(N)N1c1ccc(Cl)cc1 (stereo not drawn) [Compound 2]	0.26
CC1N=C(N)N=C(N)N1c1ccc(Cl)cc1 (stereo not drawn) [Compound 1]	16.9
CC1(C)N=C(N)N=C(N)N1c1ccc(O)cc1 [Compound 4]	21.7

I'd like to know its Selectivity IC50 TbDHFR-TS /IC50 TbPTR1. The compound in question is COc1ccc(N2C(N)=NC(N)=NC2(C)C)cc1 [Compound 5]
49.6

# repeat for NC1=NC2(CCCCC2)N(c2ccc(Cl)cc2)C(N)=N1 [Compound 3]
14.4

---

# assay target: TbPTR1 (Trypanosoma brucei brucei, UniProt O76290)
# Construct: His tag; made in house; host or cells: E. coli
# Sequence (O76290 1-268): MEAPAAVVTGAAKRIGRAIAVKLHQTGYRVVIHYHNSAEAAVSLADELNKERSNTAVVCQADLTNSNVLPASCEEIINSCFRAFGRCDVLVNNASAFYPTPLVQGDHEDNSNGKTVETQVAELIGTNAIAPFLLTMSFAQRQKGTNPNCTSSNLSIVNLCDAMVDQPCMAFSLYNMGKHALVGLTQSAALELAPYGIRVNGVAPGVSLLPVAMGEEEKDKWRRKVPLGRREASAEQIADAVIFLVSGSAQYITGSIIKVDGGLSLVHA
# test: biochemical
# Format: biochemical
# condition details: recombinant enzyme, citrate buffer pH 3.7, 25 µM H2B; spread from CI95 of fitting
reported property: IC50 (µM)
A number alone suffices; assume µM.

For orientation, consider the following solved cases.
compound	IC50 / µM
NC1=NC2(CCCCC2)N(c2ccc(Cl)cc2)C(N)=N1	1.22
CC1(C)N=C(N)N=C(N)N1c1ccc(O)cc1	4.1
COc1ccc(N2C(N)=NC(NC(C)=O)=NC2(C)C)cc1	0.83

Can you look up the measured IC50 of CCCC1N=C(N)N=C(N)N1c1ccc(Cl)cc1 (stereo not drawn) for me?
27.5

Try this compound next: COc1ccc(N2C(N)=NC(N)=NC2(C)C)cc1
0.67

Continue with CC1N=C(N)N=C(N)N1c1ccc(Cl)cc1 (stereo not drawn)
6.02
